These entries and their values trace back to PubChem BioAssay (EPA / NIEHS).

# Read-out: Tissue Factor, F3 (gene 2152)
# protocolNotes: BSK_LPS_TissueFactor: BioMAP Diversity Plus: LPS Assay for Tissue Factor Biomarker Activity (AID 2283084)
# appliedConditions: primary human HUVEC with PBMC; actives raise or lower the signal
The source made the active and inactive calls. Rule for the calls: active = hit-call score of the fitted dose curve at least 0.9, where 1 is the maximum; inactive = score below 0.9.
Give one outcome, nothing more. List: active, inactive

Inquiry: For this compound, state the assay outcome: CC(C)(C)CC(C)(C)c1ccc(OCCOCC[N+](C)(C)Cc2ccccc2)cc1
Reply text: active

Inquiry: Per the records of this test, what outcome belongs to CCN(CC)C(=O)N(CC)CC ?
Reply text: inactive

Inquiry: Hi team, can someone confirm the assay call for CC1(C)CCC[C@]2(C)[C@H]3CCO[C@]3(C)CC[C@@H]12 ?
Reply text: inactive

Inquiry: What was the test verdict on COc1ccc(OC)c(N=Nc2c(O)ccc3ccccc23)c1 ?
Reply text: active

Inquiry: For this compound, state the assay outcome: CCCCN(CCCC)C(=O)N(CCCC)CCCC
Reply text: active
